- procedure-details: folding stability dG unfold from chymotrypsin proteolysis; higher = more stable
Would you mind labelling by folding stability dG unfold? At or over 0.8 kcal/mol is Y, under is N.

Problem: Is the recorded value of folding stability dG unfold equal to or greater than 0.8 kcal/mol for this sequence? SAGGSAGGIRINPENGQIYFPLENGKAKSVPFKPGQEREIPNGWRITIKPDPPGPWEIEVKPLDSAGGSAGG [r6_296_TrROS]
Result: N

Problem: Is the recorded value of folding stability dG unfold equal to or greater than 0.8 kcal/mol for this sequence? SAGGSAGGSAGPNWKKYTFTIFFPGYPFRVEIERPKDGPNAPLAIKIEDPNGKPMETFPISAGGSAGGSAGG [r11_223_TrROS]
Result: Y

Problem: Is the recorded value of folding stability dG unfold equal to or greater than 0.8 kcal/mol for this sequence? SAGGSAGGSAGGMTITIKVPPNMTEEQLRELARELARKLGLEDVEVRIERREDGTVRITFSAGGSAGGSAGG [r7_810_TrROS_Hall]
Result: Y

Problem: Is the recorded value of folding stability dG unfold equal to or greater than 0.8 kcal/mol for this sequence? SAGGSAGGSAGGEARDNGVPTIEIPIPPEFKKGMPAEQMVDQLAKQLPPGVKDIHIEPPPSAGGSAGGSAGG [r7_487_TrROS]
Result: N

Problem: Is the recorded value of folding stability dG unfold equal to or greater than 0.8 kcal/mol for this sequence? SAMVPLEEAAKRVAEELGLEYTEITKIVPGTGELIVEFPGKKLTVTQDPATGSTTVEETFYDPETGVKKSAG [r14_270_JUSTAS]
Result: N

Problem: Is the recorded value of folding stability dG unfold equal to or greater than 0.8 kcal/mol for this sequence? SAMTITVTAPPGYTLNVTVTLAGGVPLTRTFSPSQSIDITIPEGTPFSLTVTTTAPGGEVATSTLTVPLSAG [r14_568_JUSTAS]
Result: Y

Problem: Is the recorded value of folding stability dG unfold equal to or greater than 0.8 kcal/mol for this sequence? SAGDNMYKYDYENPWYGIKIEVWVSPNGQIVSIKVKIEKVPPVPPKPPIDPEDMVPDPDGKYRSPNDLDSAG [r5_685_TrROS]
Result: Y

Problem: Is the recorded value of folding stability dG unfold equal to or greater than 0.8 kcal/mol for this sequence? SAGGSMKPSKVTEVTHPDGTRFTVTEYPEVPLLTLTIERPETGTTTTVKTKSREEAEKVLAELVASSAGGSA [r2_70_JUSTAS]
Result: N

Problem: Is the recorded value of folding stability dG unfold equal to or greater than 0.8 kcal/mol for this sequence? SAGGSAGGSAAPDEKLKITVELVDPNNGKRIEEKEYPNMTIEEVKKEAEEKGLKIVKIEVSSAGGSAGGSAG [r3_423_JUSTAS]
Result: N

Problem: Is the recorded value of folding stability dG unfold equal to or greater than 0.8 kcal/mol for this sequence? SAGGSAGGSAGGKTLTLEIEINGKLYKIEFSGDSIKITEIKVKPKPKKKEFFSEEELKKKSAGGSAGGSAGG [r7_748_TrROS_Hall]
Result: Y

Problem: Is the recorded value of folding stability dG unfold equal to or greater than 0.8 kcal/mol for this sequence? SAGGSAGGSMTFEILPDGKTKTLTLDEAKELILNEVPPDTTVVNLDTGKVISAEEFLKLLGIKVSAGGSAGG [r6_937_JUSTAS]
Result: Y

Problem: Is the recorded value of folding stability dG unfold equal to or greater than 0.8 kcal/mol for this sequence? SAGGSAGGSAGSMTSISVDVPVPGKNVVTVTVTLPPNTTTVTITVEPLPNGELKVTVETSSAGGSAGGSAGG [r11_657_JUSTAS]
Result: Y

Problem: Is the recorded value of folding stability dG unfold equal to or greater than 0.8 kcal/mol for this sequence? SAGGSAGGSAGGSMTVTLSREELLRLLGVPPGVPIPESVLAKIKSIETLPDGSVTVTIGSAGGSAGGSAGGS [r4_369_JUSTAS]
Result: Y

The values you see were collected from the supplement of paper PMC12764529.
